System: PA1 (human ovary)
assayComment: MTT cytotoxicity assay, PA1 cells
Type: cell-based
conditionLabel: human, 48 hours, 1 μM
Starred links: 1 amine or outer side, 2 acyl side, 3 side chain; linkers in the order of their positions; H or OH if unused. Non-standard residues stand in square brackets, D forms with d. Residues, ends and D or L forms follow the SMILES beside them. 2Furoyl(5-aminomethyl) = O=C(c1ccc(CN[*:1])o1)[*:2]
Catalogue of Percent Cytotoxicity readings, one per entry.

{"compound": "CSCC[C@H](NC(=O)[C@@H](N)CC(C)C)C(=O)N[C@@H](Cc1ccc(O)cc1)C(=O)NC[C@H]1O[C@H](C(=O)N[C@H](C(=O)N[C@@H](Cc2ccc(O)cc2)C(=O)N[C@@H](CC(C)C)C(=O)N[C@@H](CCCCN)C(=O)O)[C@@H](C)O)[C@@H](OCc2ccccc2)[C@@H]1OCc1ccccc1", "testSystem": "PA1 (human ovary)", "Percent Cytotoxicity": "10.8 ± 0.6%"}
{"compound": "CSCC[C@H](NC(=O)[C@@H](N)CC(C)C)C(=O)NCc1ccc(C(=O)N[C@@H](Cc2ccc(O)cc2)C(=O)N[C@@H](CC(C)C)C(=O)N[C@@H](CCCCN)C(=O)O)o1 [SEQ ID NO: 18, Leu-Met-Saa1-Tyr-Leu-Lys] (H-LM[2Furoyl(5-aminomethyl)]YLK-OH)", "testSystem": "PA1 (human ovary)", "Percent Cytotoxicity": "20.3 ± 2.6%"}
{"compound": "CSCC[C@H](N)C(=O)NC[C@H]1CC[C@@H](C(=O)N[C@@H](Cc2ccc(O)cc2)C(=O)N[C@@H](CC(C)C)C(=O)O)O1", "testSystem": "PA1 (human ovary)", "Percent Cytotoxicity": "6.0 ± 0.7%"}

----------
Tested on: KB (oral)
assayComment: MTT cytotoxicity assay, KB cells
Type: cell-based, human
conditionLabel: human, 48 hours, 10 nM
Starred links: 1 amine or outer side, 2 acyl side, 3 side chain; linkers in the order of their positions; H or OH if unused. Non-standard residues stand in square brackets, D forms with d. Residues, ends and D or L forms follow the SMILES beside them. X2 = O=C([C@@H]1CC[C@H](CN[*:1])O1)[*:2]; X1 = O=C(C1CCC(CN[*:1])O1)[*:2]

{"molecule": "CSCC[C@H](NC(=O)[C@@H](N)CC(C)C)C(=O)N[C@@H](Cc1ccc(O)cc1)C(=O)NC[C@H]1CC[C@@H](C(=O)N[C@@H](Cc2ccc(O)cc2)C(=O)N[C@@H](CC(C)C)C(=O)N[C@@H](CCCCN)C(=O)O)O1 [SEQ ID NO: 13, Leu-Met-Tyr-Saa4-Tyr-Leu-Lys] (H-LMY[X2]YLK-OH)", "Percent Cytotoxicity (%)": 27.9}
{"molecule": "CSCC[C@H](NC(=O)[C@@H](N)CC(C)C)C(=O)N[C@@H](Cc1ccc(O)cc1)C(=O)NCC1CCC(C(=O)N[C@@H](Cc2ccc(O)cc2)C(=O)N[C@@H](CC(C)C)C(=O)N[C@@H](CCCCN)C(=O)O)O1 (stereo partly drawn) [SEQ ID NO: 12, Leu-Met-Tyr-Saa3-Tyr-Leu-Lys] (H-LMY[X1]YLK-OH)", "Percent Cytotoxicity (%)": 37.4}

----------
System: HeP-2 (larynx)
assayComment: MTT cytotoxicity assay, HeP-2 cells
Assay type: cell-based, human
conditionLabel: human, 48 hours, 1 nM
Starred links: 1 amine or outer side, 2 acyl side, 3 side chain; linkers in the order of their positions; H or OH if unused. Non-standard residues stand in square brackets, D forms with d. Residues, ends and D or L forms follow the SMILES beside them. 2Furoyl(5-aminomethyl) = O=C(c1ccc(CN[*:1])o1)[*:2]; X2 = O=C([C@@H]1CC[C@H](CN[*:1])O1)[*:2]; X1 = O=C(C1CCC(CN[*:1])O1)[*:2]
readoutLabel: Percent Cytotoxicity (%)

{"compound": "CSCC[C@H](NC(=O)[C@@H](N)CC(C)C)C(=O)N[C@@H](Cc1ccc(O)cc1)C(=O)NCC1CCC(C(=O)N[C@@H](Cc2ccc(O)cc2)C(=O)N[C@@H](CC(C)C)C(=O)N[C@@H](CCCCN)C(=O)O)O1 (stereo partly drawn) [SEQ ID NO: 12, Leu-Met-Tyr-Saa3-Tyr-Leu-Lys] (H-LMY[X1]YLK-OH)", "recordedMeasurement": 21.9}
{"compound": "CSCC[C@H](N)C(=O)NCc1ccc(C(=O)N[C@@H](Cc2ccc(O)cc2)C(=O)N[C@@H](CC(C)C)C(=O)O)o1", "recordedMeasurement": 11.0}
{"compound": "CSCC[C@H](N)C(=O)NCC1CCC(C(=O)N[C@@H](Cc2ccc(O)cc2)C(=O)N[C@@H](CC(C)C)C(=O)O)O1 (some centres unmarked)", "recordedMeasurement": 16.5}
{"compound": "CSCC[C@H](N)C(=O)NC[C@H]1CC[C@@H](C(=O)N[C@@H](Cc2ccc(O)cc2)C(=O)N[C@@H](CC(C)C)C(=O)O)O1", "recordedMeasurement": 33.6}
{"compound": "CSCC[C@H](NC(=O)[C@@H](N)CC(C)C)C(=O)NCc1ccc(C(=O)N[C@@H](Cc2ccc(O)cc2)C(=O)N[C@@H](CC(C)C)C(=O)N[C@@H](CCCCN)C(=O)O)o1 [SEQ ID NO: 18, Leu-Met-Saa1-Tyr-Leu-Lys] (H-LM[2Furoyl(5-aminomethyl)]YLK-OH)", "recordedMeasurement": 47.0}
{"compound": "CSCC[C@H](NC(=O)[C@@H](N)CC(C)C)C(=O)N[C@@H](Cc1ccc(O)cc1)C(=O)NC[C@H]1O[C@H](C(=O)N[C@H](C(=O)N[C@@H](Cc2ccc(O)cc2)C(=O)N[C@@H](CC(C)C)C(=O)N[C@@H](CCCCN)C(=O)O)[C@@H](C)O)[C@@H](OCc2ccccc2)[C@@H]1OCc1ccccc1", "recordedMeasurement": 12.6}
{"compound": "CSCC[C@H](NC(=O)[C@@H](N)CC(C)C)C(=O)N[C@@H](Cc1ccc(O)cc1)C(=O)NC[C@H]1CC[C@@H](C(=O)N[C@@H](Cc2ccc(O)cc2)C(=O)N[C@@H](CC(C)C)C(=O)N[C@@H](CCCCN)C(=O)O)O1 [SEQ ID NO: 13, Leu-Met-Tyr-Saa4-Tyr-Leu-Lys] (H-LMY[X2]YLK-OH)", "recordedMeasurement": 23.0}
{"compound": "CSCC[C@H](NC(=O)[C@@H](N)CC(C)C)C(=O)N[C@@H](Cc1ccc(O)cc1)C(=O)NCc1ccc(C(=O)N[C@@H](Cc2ccc(O)cc2)C(=O)N[C@@H](CC(C)C)C(=O)N[C@@H](CCCCN)C(=O)O)o1 [SEQ ID NO: 10, Leu-Met-Tyr-Saa1-Tyr-Leu-Lys] (H-LMY[2Furoyl(5-aminomethyl)]YLK-OH)", "recordedMeasurement": 35.4}
